Each recorded value in this set is attributed to PubChem BioAssay AID1996.

# condition: buffer; pH 7.4; 200.0 µM
Short version: solubility kinetic at least 6 µg/mL is Fulfilled, less is Not fulfilled.

In plain terms: is recorded solubility kinetic at least 6 µg/mL for "CCCc1nc2oc3c(Cl)ncnc3c2c2c1CCCC2" ?
Not fulfilled

Check if solubility kinetic >= 6 µg/mL (inclusive). Item: "COc1ccc(OC)c(S(=O)(=O)N2CCc3ccccc3C2)c1"
Fulfilled

In plain terms: is recorded solubility kinetic at least 6 µg/mL for CC1CCCCC1NC(=S)NC(=O)c1ccccc1Cl (configuration not stated) ?
Not fulfilled

Please tell me: is the molecule CC1=C(C(=O)OC2CCCCC2)C(c2ccc(F)cc2)NC(=O)N1 (configuration not stated) at or over 6 µg/mL in terms of solubility kinetic?
Fulfilled

Quick check: does "COC(=O)C[n+]1cccc2ccccc21.[Cl-]" have solubility kinetic greater than or equal to 6 µg/mL?
Fulfilled

Is it the case that "O=C(Nc1cccc(C(=O)Nc2ccc(Cl)cn2)c1)c1ccccc1" has solubility kinetic reaching or exceeding 6 µg/mL?
Not fulfilled

Could you tell me if the measured solubility kinetic of CCC(C(=O)OCC(=O)Nc1ccc(OC)cc1OC)c1ccccc1 (configuration not stated) reaches 6 µg/mL or more?
Not fulfilled

Check the entry CCNC(=O)N1CCCC(C(=O)c2ccc(OC)c(OC)c2)C1 (configuration not stated) : does solubility kinetic equal or exceed 6 µg/mL?
Fulfilled

Is it the case that "COc1ccccc1C(=O)OCc1ccc2sc(C)nc2c1" has solubility kinetic reaching or exceeding 6 µg/mL?
Not fulfilled

Is the recorded value of solubility kinetic equal to or greater than 6 µg/mL for this molecule? "CCCS(=O)(=O)C/C(N)=N/OC(=O)c1ccccc1Cl"
Fulfilled

# bool: solubility kinetic of "CSc1nc2ccccc2c(=O)n1-c1cccnc1" >= 6 µg/mL
Fulfilled

# bool: solubility kinetic of "Cc1ccc(NS(=O)(=O)c2ccc3c(c2)n(C)c(=O)n3C)cc1" >= 6 µg/mL
Fulfilled
